Test system: Hs-578T
ASSAY REMARKS: NCI tumour cell line growth inhibition, 48 h
Activity calls are given as the source filed them. Rule as the data show it: active = GI50 up to about 1.1 µM and inactive = higher.
OUTCOME MEASURE: GI50

{"COMPOUND": "Cc1ccc(C)c(NC(=O)/C(=N\\N)C(c2cnc3ccc([N+](=O)[O-])cc3n2)[N+](=O)[O-])c1 (centres undefined)", "TARGET SYSTEM": "Hs-578T", "RESULT": "80.4 µM (inactive)"}

Prompt: # GI50 lookup, item O=c1cc(-c2ccccc2)[nH]c2ccc(S)cc12
Response: 26.2 µM (inactive)

Prompt: One more compound: Cn1c(=O)c2[nH]c(N/N=C3/SCC(=O)N3Cc3ccccc3)nc2n(C)c1=O
Response: 17.1 µM (inactive)

Prompt: One more compound: CC(=O)O[C@H]1CC[C@H]2[C@@H]3CC[C@H]4Nc5c(cnn5S(C)(=O)=O)C[C@]4(C)[C@H]3CC[C@]12C
Response: 45.6 µM (inactive)

Prompt: One more compound: CCCCNC1CCC2(SCCS2)c2[nH]c3ccccc3c21 (centres undefined)
Response: 29.8 µM (inactive)

Prompt: One more compound: COc1ccc2[nH]cc(CN3CCC(CO)(c4ccccc4)CC3)c2c1
Response: 25.7 µM (inactive)

---

Test system: LXFL 529
ASSAY REMARKS: NCI tumour cell line growth inhibition, 48 h
The source made the active and inactive calls. Rule as the data show it: active = GI50 up to about 1.1 µM and inactive = higher.
A correct response names exactly one class from active, inactive

{"MOLECULE": "O=C(O)CCSC(=O)Nc1ccc(/N=N/c2ccccc2)cc1", "CLASS": "inactive"}
{"MOLECULE": "C/C=C(\\C)C(=O)N1c2ccccc2CC1c1c(C)[nH]c2ccccc12 (centres undefined)", "CLASS": "inactive"}

Prompt: Call for entry COc1ccc(/C(Cl)=C(\C=O)c2ccc(Br)cc2)cc1OC :
Response: inactive

Prompt: One more molecule: O=C1O[B-](c2ccccc2)(c2ccccc2)[NH2+]C1CS (centres undefined)
Response: inactive

Prompt: One more molecule: CCCN1CN(C(C(=O)N[C@@H]2C(=O)N3C2SC(C)(C)C3C(=O)O)c2ccccc2)CSC1=S (some centres undefined)
Response: inactive

---

System: TK-10
ASSAY REMARKS: NCI tumour cell line growth inhibition, 48 h
Calls of active or inactive are those of the source. No stated cut-off is given here; in the data, active = GI50 up to about 1.1 µM and inactive = higher.
Quick list: GI50 per entry.

Examples with their reported GI50 follow.
{"MOLECULE": "CN(C)c1ccc(Cc2cc3c(O)ccc(O)c3cc(Cc3ccc(N(C)C)cc3)c2=O)cc1", "OUTCOME MEASURE": "GI50", "RESULT": "18.6 µM (inactive)"}
{"MOLECULE": "Cc1c(C(=O)c2ccccc2C(=O)O)c2ccccc2n1C", "OUTCOME MEASURE": "GI50", "RESULT": "> 100 µM (inactive)"}
{"MOLECULE": "CN1C(=O)c2cccc3c([N+](=O)[O-])ccc(c23)C1=O", "OUTCOME MEASURE": "GI50", "RESULT": "3.86 µM (inactive)"}
{"MOLECULE": "CC1CN=C(N(C)C(=O)Nc2ccc(Cl)c(Cl)c2)S1 (stereo unspecified)", "OUTCOME MEASURE": "GI50", "RESULT": "26.8 µM (inactive)"}
{"MOLECULE": "O=C(CCc1ccc(O)c(O)c1)c1ccc(O)c(O)c1O", "OUTCOME MEASURE": "GI50", "RESULT": "19 µM (inactive)"}

Then there is this molecule:
Prompt: Checklist item: GI50 tested on TK-10, entry COc1ccc(OC)c(/C=C2\CCc3ccccc3C2=O)c1 , value?
Response: 5.16 µM (inactive)

The origin of these recorded values is ChEMBL document CHEMBL1201862.
